Some molecules, each annotated with its measured DOR Antagonist %Imax ± SEM.
assayed.system: human δ-opioid receptor (OPRD1) (Homo sapiens)
Sequence (P41143 whole entry): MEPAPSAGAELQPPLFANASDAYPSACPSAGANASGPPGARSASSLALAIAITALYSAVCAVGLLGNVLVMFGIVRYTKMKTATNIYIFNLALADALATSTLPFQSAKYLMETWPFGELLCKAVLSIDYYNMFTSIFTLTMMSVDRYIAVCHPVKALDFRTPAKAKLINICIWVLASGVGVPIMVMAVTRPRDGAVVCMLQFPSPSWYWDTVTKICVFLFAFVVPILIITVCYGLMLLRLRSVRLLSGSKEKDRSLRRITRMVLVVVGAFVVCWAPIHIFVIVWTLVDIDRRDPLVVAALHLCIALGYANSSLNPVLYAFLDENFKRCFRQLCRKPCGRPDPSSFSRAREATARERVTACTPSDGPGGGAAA
experiment: Forskolin-induced cAMP accumulation assay, DOR antagonist mode
condition.context: versus EC50 of SNC80; normalized to naltrexone
measured.attribute: DOR Antagonist %Imax ± SEM (%)

> print(dat)
                                   molecule                            assayed.system  units.of.measure  value.observed
1  C=C[C@H]1[C@H]2CCC[C@]1(c1cccc(O)c1)CCN2CCc1ccc(O)cc1  human δ-opioid receptor (OPRD1) (Homo sapiens)                 %           163.6
2  C=C[C@H]1C2CCCC1(c1cccc(O)c1)CCN2CCc1ccccc1[N+](=O)[O-] (stereo in doubt)  human δ-opioid receptor (OPRD1) (Homo sapiens)                 %            63.5
3  C=C[C@H]1[C@H]2CCC[C@]1(c1cccc(O)c1)CCN2CCc1cccs1  human δ-opioid receptor (OPRD1) (Homo sapiens)                 %            87.1
4  C=C[C@H]1[C@H]2CCC[C@]1(c1cccc(C(N)=O)c1)CCN2CCc1ccccc1  human δ-opioid receptor (OPRD1) (Homo sapiens)                 %           117.6
5  C=C[C@H]1[C@H]2CCC[C@]1(c1cccc(O)c1)CCN2CCc1ccc(F)cc1  human δ-opioid receptor (OPRD1) (Homo sapiens)                 %           153.1
6  C=C[C@H]1[C@H]2CCC[C@]1(c1cccc(O)c1)CCN2CCc1ccc([N+](=O)[O-])cc1  human δ-opioid receptor (OPRD1) (Homo sapiens)                 %           137.2
7  C=C[C@H]1[C@H]2CCC[C@]1(c1cccc(O)c1)CCN2CCc1cccc([N+](=O)[O-])c1  human δ-opioid receptor (OPRD1) (Homo sapiens)                 %           149.9
8  C=C[C@H]1[C@H]2CCC[C@]1(c1cccc(O)c1)CCN2CCc1ccccc1 [DC-1–76.2, reference compound]  human δ-opioid receptor (OPRD1) (Homo sapiens)                 %           119.1
9  C=C[C@H]1C2CCCC1(c1cccc(O)c1)CCN2CCc1cccc(O)c1 (stereo in doubt)  human δ-opioid receptor (OPRD1) (Homo sapiens)                 %           138.7
